target: biotinylated human DLL3 protein expressed as a human IgG1 fusion protein (human) (UniProt Q9NYJ7); assay: Octet, biotinylated human DLL3-IgG1 fusion on streptavidin tips, single 50 nM, conditioned medium (relative KD)
Sequence (Q9NYJ7 27-492): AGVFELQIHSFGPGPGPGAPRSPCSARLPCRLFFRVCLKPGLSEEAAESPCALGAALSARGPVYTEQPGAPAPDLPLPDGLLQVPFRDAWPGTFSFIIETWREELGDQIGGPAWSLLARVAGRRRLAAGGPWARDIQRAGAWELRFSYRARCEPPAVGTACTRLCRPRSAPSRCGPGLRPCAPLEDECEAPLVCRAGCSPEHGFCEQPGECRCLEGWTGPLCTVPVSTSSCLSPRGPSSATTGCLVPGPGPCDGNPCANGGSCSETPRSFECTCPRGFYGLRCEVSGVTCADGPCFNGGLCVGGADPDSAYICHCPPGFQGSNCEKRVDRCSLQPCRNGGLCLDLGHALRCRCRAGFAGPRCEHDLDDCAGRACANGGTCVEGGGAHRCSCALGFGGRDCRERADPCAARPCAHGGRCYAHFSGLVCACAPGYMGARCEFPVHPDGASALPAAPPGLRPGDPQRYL
Documented Kd across a set of binders
// return numeric value only (unit: nM, not printed)

anti-DLL3 trispecific protein, DLL3 binder 3A01 (protein, part only; not given: anti-CD3 fragment and anti-albumin sdAb, part only) chain, part: EVQLVESGGGLVQPGGSLTLSCAASGSSVKFLSMAWYRQAPGKKRELVAGISADGSTDYIDSVKGRFTISRDNAKNSVYLQMNSLRAEDTAVYYCYAYRWTRRYTYWGQGTLVTVSSGGGGSGGGSGGGGSGGGSHHHHHH :: 16

In the following, a different binder is considered.
For the binder anti-DLL3 trispecific protein, DLL3 binder 1F09 (protein, part only; not given: CD3 binder and albumin binder, part only) chain, part: EVQLVESGGGLVQPGGSLTLSCVASGNTSSINAMGWYRRAPGKQRELVAGISSNGSKVYADSVKGRFTISRDNAKNSVYLQMNSLRAEDTAVYYCYYFRTVTGSSMRYWGQGTLVTVSSGGGGSGGGSGGGGSGGGSHHHHHH , what Kd is on record?
35

Values from patent US20200095340A1
